system: NCI-H460; assay: Cytotoxicity against human NCI-H460 cells assessed as cellular growth at 10 uM; type: functional
Could you please report measured Activity for the items listed next?
// note: answer is a bare numeric in %

The reported value for O=C(CCl)Nc1ccc2c(c1NC(=O)Cc1ccccc1)C(=O)c1ccccc1C2=O in terms of Activity is 104.5

The reported value for Cc1ccc(C(=O)Nc2ccc3c(c2NC(=O)c2ccc(C)cc2)C(=O)c2ccccc2C3=O)cc1 in terms of Activity is 88.62

The reported value for Cc1ccc(C(=O)Nc2c(NC(=O)CN3CCN(C)CC3)ccc3c2C(=O)c2ccccc2C3=O)cc1 in terms of Activity is 37.47

The reported value for Cc1ccc(C(=O)Nc2c(NC(=O)CN3CCCC3)ccc3c2C(=O)c2ccccc2C3=O)cc1 in terms of Activity is 61.05

The reported value for Cc1ccc(C(=O)Nc2c(NC(=O)CCl)ccc3c2C(=O)c2ccccc2C3=O)cc1 in terms of Activity is 95.65

---

target: Telomerase reverse transcriptase (Homo sapiens); experiment: Residual activity of human TERT in H1299 cells at 1 uM after 24 hrs by SEAP reporter gene assay
Could you please report measured residual activity for the items listed next?
// note: answer is a bare numeric in %

The reported value for Cc1ccc(C(=O)Nc2c(NC(=O)CCl)ccc3c2C(=O)c2ccccc2C3=O)cc1 in terms of residual activity is 109

The reported value for Cc1ccc(C(=O)Nc2ccc3c(c2NC(=O)c2ccc(C)cc2)C(=O)c2ccccc2C3=O)cc1 in terms of residual activity is 108

The reported value for O=C(CCl)Nc1ccc2c(c1NC(=O)c1cccs1)C(=O)c1ccccc1C2=O in terms of residual activity is 5

The reported value for O=C(CCCCl)Nc1ccc2c(c1NC(=O)CCCCl)C(=O)c1ccccc1C2=O in terms of residual activity is 113

The reported value for O=C(CCl)Nc1ccc2c(c1NC(=O)c1ccno1)C(=O)c1ccccc1C2=O in terms of residual activity is 92

The reported value for Cc1ccc(C(=O)Nc2c(NC(=O)CN3CCN(c4ncccn4)CC3)ccc3c2C(=O)c2ccccc2C3=O)cc1 in terms of residual activity is 87

The reported value for O=C(CCl)Nc1ccc2c(c1NC(=O)c1cccc(C(F)(F)F)c1)C(=O)c1ccccc1C2=O in terms of residual activity is 99

The reported value for O=C(CCCl)Nc1ccc2c(c1NC(=O)CCCl)C(=O)c1ccccc1C2=O in terms of residual activity is 96

The reported value for O=C(CCl)Nc1ccc2c(c1NC(=O)c1ccccc1F)C(=O)c1ccccc1C2=O in terms of residual activity is 105

---

Could you please report measured Activity for the items listed next?
test system: PC-3; assay: Cytotoxicity against human PC3 cells assessed as cellular growth at 10 uM; assay type: functional
// note: answer is a bare numeric in %

With PC-3 as the test system, Cc1ccc(C(=O)Nc2ccc3c(c2NC(=O)c2ccc(C)cc2)C(=O)c2ccccc2C3=O)cc1 showed Activity of 82.91

With PC-3 as the test system, Cc1ccc(C(=O)Nc2c(NC(=O)CN3CCN(C)CC3)ccc3c2C(=O)c2ccccc2C3=O)cc1 showed Activity of 84.75

With PC-3 as the test system, Cc1ccc(C(=O)Nc2c(NC(=O)CCl)ccc3c2C(=O)c2ccccc2C3=O)cc1 showed Activity of 6.81

With PC-3 as the test system, Cc1ccc(C(=O)Nc2c(NC(=O)CN3CCCC3)ccc3c2C(=O)c2ccccc2C3=O)cc1 showed Activity of 75
